- measuredTarget: human Gal-3 (hGal-3) (Homo sapiens (Human), UniProt P17931)
- Sequence (P17931 whole entry): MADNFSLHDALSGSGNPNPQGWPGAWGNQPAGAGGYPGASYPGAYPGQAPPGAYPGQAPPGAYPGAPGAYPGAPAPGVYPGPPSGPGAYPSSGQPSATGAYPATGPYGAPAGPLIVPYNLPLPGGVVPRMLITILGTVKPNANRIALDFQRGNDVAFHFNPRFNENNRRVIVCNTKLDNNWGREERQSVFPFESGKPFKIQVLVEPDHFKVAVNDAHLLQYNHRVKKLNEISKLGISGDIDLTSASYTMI
- testSummary: competitive binding assay: biotinylated hGal-3 binding to microplate-adsorbed asialofetuin (ASF)
- measurementParameters: Table 11; read-out: IC50 (Gal-3 inhibition)
observable: IC50 (nM)
# unit: nM | format: bare number

CO[C@@H]1[C@@H](n2cc(-c3cc(F)c(F)c(F)c3)nn2)[C@@H](O)[C@@H](CO)O[C@H]1S[C@H](c1nc(C)ccc1Cl)C1(O)CCC(F)(F)CC1 [Example 2.44.148R.I.]; 240

I am curious: what IC50 value has been reported for CO[C@@H]1[C@@H](n2cc(-c3cc(F)c(F)c(F)c3)nn2)[C@@H](O)[C@@H](CO)O[C@H]1SC(c1nc(C)ccc1C)C1(O)CCC(F)(F)CC1 (some centres unmarked) ? 400

I am curious: what IC50 value has been reported for CO[C@@H]1[C@@H](n2cc(-c3cc(F)c(F)c(F)c3)nn2)[C@@H](O)[C@@H](CO)O[C@H]1SC(c1nc(Cl)ccc1Cl)C1(O)CCC(F)(F)CC1 (some centres unmarked) ? 250

I am curious: what IC50 value has been reported for CCc1cccnc1C(S[C@@H]1O[C@H](CO)[C@H](O)[C@H](n2cc(-c3cc(F)c(F)c(F)c3)nn2)[C@H]1OC)C1(O)CCC(F)(F)CC1 (some centres unmarked) ? 50

I am curious: what IC50 value has been reported for CCc1cccnc1[C@@H](S[C@@H]1O[C@H](CO)[C@H](O)[C@H](n2cc(-c3cc(F)c(F)c(F)c3)nn2)[C@H]1OC)C1(O)CCC(F)(F)CC1 [Example 2.44.142R.I.] ? 30

====

- measuredTarget: human Gal-3 (hGal-3) (Homo sapiens (Human))
- testSummary: competitive binding assay: biotinylated hGal-3 binding to microplate-adsorbed asialofetuin (ASF)
- measurementParameters: Gal-3 inhibition; binding of biotinylated hGal-3 to ASF; mean values; read-out: IC50
The following compounds are listed with their measured pIC50 values.
Convention used: pIC50 is expressed as -log10 of the molar concentration.

The cases that follow already have their pIC50 on record.
Cc1c(F)cc(-c2cn([C@H]3[C@@H](O)[C@@H](CO)O[C@@H](S[C@@H](c4ccccc4C(F)(F)F)C(C)(C)O)[C@@H]3O)nn2)cc1F [Example 3.31.112S.]; 5.31
Cc1conc1[C@@H](S[C@@H]1O[C@H](CO)[C@H](O)[C@H](n2cc(-c3cc(F)c(F)c(F)c3)nn2)[C@H]1O)C1(O)CCS(=O)(=O)CC1 [Example 2.66.120R.]; 7.52

Shift focus to the following entry.
I am curious: what pIC50 value has been reported for CO[C@@H]1[C@@H](n2cc(-c3cc(F)c(F)c(F)c3)nn2)[C@@H](O)[C@@H](CO)O[C@H]1SC(c1ccccc1C(F)(F)F)C1(O)CCN(C(=O)NC2CC2)CC1 (stereo partly drawn) ? 6.68

====

The following compounds are listed with their measured IC50 values.
- measuredTarget: human Gal-3 (hGal-3) (Homo sapiens (Human), UniProt P17931)
- testSummary: competitive binding assay: biotinylated hGal-3 binding to microplate-adsorbed asialofetuin (ASF)
- measurementParameters: Table 5; read-out: IC50 (Gal-3 inhibition)
# unit: nM | format: bare number

The cases that follow already have their IC50 on record.
OC[C@H]1O[C@@H](S[C@H](c2ccccc2Cl)C2(O)CCC(F)(F)CC2)[C@H](O)[C@@H](n2cc(-c3cc(F)c(F)c(F)c3)nn2)[C@H]1O [Example 2.44.111R]; 90
Cc1ccccc1[C@@H](S[C@@H]1O[C@H](CO)[C@H](O)[C@H](n2cc(-c3cc(F)c(F)c(F)c3)nn2)[C@H]1O)C1(O)CCCCC1 [Example 2.39.102R.]; 90
OC[C@H]1O[C@@H](S[C@@H](c2ccccc2C(F)(F)F)C2(O)CC(F)(F)C2)[C@H](O)[C@@H](n2cc(-c3cc(F)c(F)c(F)c3)nn2)[C@H]1O [Example 2.33.112S.]; 11300
Cc1ccccc1C(S[C@@H]1O[C@H](CO)[C@H](O)[C@H](n2cc(-c3cc(F)c(F)c(F)c3)nn2)[C@H]1O)C1(O)CC(C)(C)C1 (some centres unmarked); 350
Cc1ccccc1C(S[C@@H]1O[C@H](CO)[C@H](O)[C@H](n2cc(-c3cc(F)c(F)c(F)c3)nn2)[C@H]1O)C1(O)CCC1 (some centres unmarked); 1000
OC[C@H]1O[C@@H](S[C@H](c2ccccc2C(F)(F)F)C2(O)CC(F)(F)C2)[C@H](O)[C@@H](n2cc(-c3cc(F)c(F)c(F)c3)nn2)[C@H]1O [Example 2.33.112R.]; 140
CC(C)c1ccccc1[C@H](S[C@@H]1O[C@H](CO)[C@H](O)[C@H](n2cc(-c3cc(F)c(F)c(F)c3)nn2)[C@H]1O)C1(O)CCC(F)(F)CC1 [Example 2.44.105S.]; 950
OC[C@H]1O[C@@H](S[C@@H](c2ncccc2C(F)(F)F)C2(O)CCOCC2)[C@H](O)[C@@H](n2cc(-c3cc(F)c(F)c(F)c3)nn2)[C@H]1O [Example 2.41.125S.]; 1830
Cc1nc(C)c([C@H](S[C@@H]2O[C@H](CO)[C@H](O)[C@H](n3cc(-c4cc(F)c(F)c(F)c4)nn3)[C@H]2O)C2(O)CCCCC2)nc1C [Example 2.39.119S.]; 3960
Cc1ccccc1[C@H](S[C@@H]1O[C@H](CO)[C@H](O)[C@H](n2cc(-c3cc(F)c(F)c(F)c3)nn2)[C@H]1O)C1(O)CC(C)C1 (some centres unmarked) [Example 2.36.102S.]; 7200

I am curious: what IC50 value has been reported for CN1CCC(O)([C@@H](S[C@@H]2O[C@H](CO)[C@H](O)[C@H](n3cc(-c4cc(F)c(F)c(F)c4)nn3)[C@H]2O)c2ccccc2C(F)(F)F)CC1 [Example 2.40.112S.] ? 3950

Values compiled from patent US12404295B2.
